I'd be grateful if you could share measured Mean fluorescence intensity (MFI) for these entries.
- TESTED_SYSTEM: wild-type (WT) His-tagged SARS-CoV-2 SgP RBD (Severe acute respiratory syndrome coronavirus 2)
- Type: binding
- EXPERIMENTAL_PARAMETERS: glycans printed at 100 µM; MFI scaled to positive control = 100; WT RBD 20 µg/mL

Report measured Mean fluorescence intensity (MFI); entry is NCCCO[C@@H]1O[C@H](C(=O)O)[C@@H](O[C@H]2O[C@H](COS(=O)(=O)O)[C@@H](O)[C@H](OS(=O)(=O)O)[C@H]2NS(=O)(=O)O)[C@H](F)[C@H]1OS(=O)(=O)O [B23]
> 30

Report measured Mean fluorescence intensity (MFI); entry is CC(=O)N[C@H]1[C@@H](O[C@H]2[C@H](F)[C@@H](OS(=O)(=O)O)[C@H](OCCCN)O[C@@H]2C(=O)O)O[C@H](COS(=O)(=O)O)[C@@H](O)[C@@H]1OS(=O)(=O)O [B20]
> 30

Report measured Mean fluorescence intensity (MFI); entry is NCCCO[C@@H]1O[C@H](C(=O)O)[C@@H](O[C@H]2O[C@H](COS(=O)(=O)O)[C@@H](O)[C@H](OS(=O)(=O)O)[C@H]2NS(=O)(=O)O)[C@H](F)[C@H]1O [B22]
> 30
